FYI, the data here is from ChEMBL document CHEMBL1137841.

- TEST DETAILS: Tested for effect on inhibition of DSP VH1 (dual-specificity phosphatase vaccinia open reading frame H1) and the value reported is equilibrium constant
MEASUREMENT TYPE: pKi
A value of pKi is the negative decimal logarithm of a concentration given in moles per litre.

For record "NC(=O)[C@H](CCC(=O)O)NC(=O)[C@H](CCC(=O)O)NC(=O)CNC(=O)c1ccc(/C=C/C=O)cc1" the listed pKi is 3.72

----------
- TEST DETAILS: Tested for effect on inhibition of DSP VH1 (dual-specificity phosphatase vaccinia open reading frame H1)
MEASUREMENT TYPE: IC50

For record "O=C/C=C/c1ccc(C(=O)O)cc1" the listed IC50 is ~1000 µM
